measured.on: NACHT, LRR and PYD domains-containing protein 3 (Mus musculus, UniProt Q8R4B8)
Sequence (Q8R4B8 whole entry, the tested form may be a part): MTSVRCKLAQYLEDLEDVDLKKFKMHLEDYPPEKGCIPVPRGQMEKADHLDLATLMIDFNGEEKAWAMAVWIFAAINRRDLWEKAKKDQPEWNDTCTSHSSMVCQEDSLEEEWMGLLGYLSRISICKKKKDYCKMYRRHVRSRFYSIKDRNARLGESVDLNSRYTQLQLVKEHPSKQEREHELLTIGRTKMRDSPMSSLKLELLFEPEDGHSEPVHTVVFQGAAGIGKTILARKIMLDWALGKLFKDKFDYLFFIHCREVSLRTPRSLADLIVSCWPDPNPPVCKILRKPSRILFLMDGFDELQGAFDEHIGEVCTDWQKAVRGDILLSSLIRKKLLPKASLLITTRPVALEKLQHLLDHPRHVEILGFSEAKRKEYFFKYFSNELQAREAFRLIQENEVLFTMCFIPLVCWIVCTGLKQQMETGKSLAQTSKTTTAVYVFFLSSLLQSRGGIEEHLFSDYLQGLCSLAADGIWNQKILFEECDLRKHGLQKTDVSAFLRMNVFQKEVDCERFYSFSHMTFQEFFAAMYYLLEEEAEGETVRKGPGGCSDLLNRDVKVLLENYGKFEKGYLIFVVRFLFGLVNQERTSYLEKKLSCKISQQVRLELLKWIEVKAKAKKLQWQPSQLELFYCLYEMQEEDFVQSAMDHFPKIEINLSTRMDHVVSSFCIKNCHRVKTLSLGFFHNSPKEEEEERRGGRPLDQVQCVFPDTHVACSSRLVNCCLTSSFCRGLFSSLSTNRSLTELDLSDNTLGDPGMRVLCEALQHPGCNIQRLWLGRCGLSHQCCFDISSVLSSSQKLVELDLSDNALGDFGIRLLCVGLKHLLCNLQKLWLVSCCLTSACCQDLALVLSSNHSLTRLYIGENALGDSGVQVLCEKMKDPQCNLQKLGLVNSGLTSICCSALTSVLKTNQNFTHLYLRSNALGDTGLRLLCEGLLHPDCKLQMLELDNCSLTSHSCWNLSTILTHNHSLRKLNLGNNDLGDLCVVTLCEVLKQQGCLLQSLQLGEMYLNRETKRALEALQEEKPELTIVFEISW
assay.name: Inhibition of NLRP3 inflammasome activation in mouse J774A.1 cells assessed as reduction in IL-1beta level preincubated for 2 hrs followed by LPS-stimulation and further incubated for 5.5 hrs and subsequently ATP addition and measured after 30 mins by ELISA method
Assay type: cell-based
pIC50: −log10 of the molar value.

{"compound.string": "COc1ccc(Cl)cc1C(=O)NCCc1ccc(S(=O)(=O)NO)cc1", "measured.on": "NACHT, LRR and PYD domains-containing protein 3 (Mus musculus, UniProt Q8R4B8)", "pIC50": 5.07}

----------
measured.on: NACHT, LRR and PYD domains-containing protein 3 (Mus musculus, UniProt Q8R4B8)
assay.name: Inhibition of NLRP3 inflammasome activation in LPS-primed mouse J774A.1 cells assessed as reduction in IL-1beta level preincubated for 30 mins followed by addition of nigericin and measured after 40 mins by ELISA
pIC50: −log10 of the molar value.

{"compound": "CS(=O)(=O)CCC#N [DAPANSUTRILE]", "measured.on": "NACHT, LRR and PYD domains-containing protein 3 (Mus musculus, UniProt Q8R4B8)", "pIC50": 9.00}

# credit: ChEMBL document CHEMBL4321841
